Below, each of the binders is paired with its reported pKd value.
Target: T1, recombinant human aggregated full-length TDP-43 (human, UniProt Q13148 1-414)
T1 construct: also called aggregated TDP-43; aggregated FL TDP-43
T1 sequence (Q13148 whole entry): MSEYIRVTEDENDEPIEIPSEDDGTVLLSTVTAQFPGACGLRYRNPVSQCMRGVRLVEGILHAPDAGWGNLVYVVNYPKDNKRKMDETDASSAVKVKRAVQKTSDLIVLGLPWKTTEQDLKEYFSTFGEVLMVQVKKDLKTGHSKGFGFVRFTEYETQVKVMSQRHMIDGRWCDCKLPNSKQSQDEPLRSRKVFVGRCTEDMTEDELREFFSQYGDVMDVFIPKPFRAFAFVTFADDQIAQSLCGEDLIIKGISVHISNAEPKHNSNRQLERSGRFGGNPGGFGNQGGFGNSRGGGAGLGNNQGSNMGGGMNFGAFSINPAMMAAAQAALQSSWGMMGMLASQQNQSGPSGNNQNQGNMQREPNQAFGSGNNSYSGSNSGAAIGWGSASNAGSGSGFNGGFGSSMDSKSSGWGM
Assay: SPR, immobilized aggregated TDP-43
Procedure: Binding avidity to soluble or aggregated FL TDP-43 was evaluated by determing the dissociation constants (KD) using surface plasmon resonance (SPR; Biacore T200, GE Healthcare Life Sciences). Recombinant human soluble or aggregated FL TDP-43 were immobilized on a CM5 Series S sensor chip (GE Healthcare Life Sciences) by amine coupling. […] Results obtained from binding kinetics were double-referenced using a blank flow cell and a buffer cycle and were evaluated with a global 1:1 fitting model with RI. […]
// pKd: -log10(molar conc.)

Examples with answers:
>>> quantitative_result("ACI-7069-642D12-Ab1 (antibody, mouse IgG2b, V domains shown, Mouse IgG2b, kappa, from hybridoma; also called 642D12B4) VH: EVQLQQSGAELVKPGASVRLSCTASGFNIKDPYMHWVRQRPKQGLEWIGRIDPADGNTKYDPKFQGKATLTADTSSNVAYLHLSSLTSEDTAVYYCARFYGSSHWYFDVWGAGTTVTVSS VL: DIKMTQSPSSMYASLGERVTITCKASQDIKRYLSWYQQKPWKSPKILIYYATSLADGVPSRFSGTGSGQDYSLTISSLESDDVATYYCLQQGESPYTFGGGTKLEIK")
9.06
>>> quantitative_result("642D12B4 Fab (Fab, V domains shown, Fab fragment; also called Fab fragment of ACI-7069-642D12-Ab1) VH: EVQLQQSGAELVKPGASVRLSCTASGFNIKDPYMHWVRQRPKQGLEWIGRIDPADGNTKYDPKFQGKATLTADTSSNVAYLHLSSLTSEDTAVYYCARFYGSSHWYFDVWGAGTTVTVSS VL: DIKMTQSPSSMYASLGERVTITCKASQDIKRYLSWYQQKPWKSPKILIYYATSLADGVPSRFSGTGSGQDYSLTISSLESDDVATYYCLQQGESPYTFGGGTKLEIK")
7.66
>>> quantitative_result("ACI-7069-646B7-Ab1 (antibody, mouse IgG2b, V domains shown, Mouse IgG2b, kappa, from hybridoma; also called 646B7F7) VH: QVQLKESGPGLVAPSQSLSITCTVSGFSLTNFGVHWVRQPPGKGLEWLGIMWAGGSTNYNSALMSRLSISKDNSKSQVFLKMNSLQTDDTAMYYCVIYKTGFAYWGQGTLVTVSA VL: DVLMTQTPLSLPVSLGDQASISCRSSQSIVHAIGNTYLEWYLQKPGQSPKLLIYKVSNRFSGVPDRFSGSGSGTDFTLKISRVEAEDLGVYYCFQGSHVPFTFGSGTKLEIK")
8.89

Which pKd value belongs to ACI-7069-636E5-Ab1 (antibody, mouse IgG2b, V domains shown, Mouse IgG2b, lambda, from hybridoma; also called 636E5B8) VH: EVHLVESGGDLVMPGGSLKLSCAASGFTFSNYGMSWVRQTPDKRLEWVATISSGGKYINYLDSLKGRFTISRDNAKNTLYLQMSSLKSEDTAMYYCAKDYGSGWAWFAYWGQGTLVTVSA VL: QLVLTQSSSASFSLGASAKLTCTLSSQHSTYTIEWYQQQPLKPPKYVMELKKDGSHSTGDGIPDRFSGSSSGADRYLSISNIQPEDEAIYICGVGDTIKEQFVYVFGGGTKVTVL ?
8.61

I am curious: what pKd value has been reported for ACI-7071-809D9-Ab2 (antibody, mouse IgG2b, V domains shown, Mouse IgG2b, kappa, from hybridoma; also called 809D9C2) VH: QVQLQQSGAELVRPGVSVKISCKGSGYKFTDYSMHWVKQSHTKSLEWIGVISTYYGDTTYNQKFKGKATITVDKSSSTAYMELARLTSEDSAIYYCATYGNFPASFSYWGQGTLVTVSA VL: DIVMTQAAPSIPVTPGESVSISCRSSKSLLHSNGNTYLYWFLQRPGQSPQLLIYRMSNLASGVPDRFSGSGSGTAFTLRISRVEAEDVGVYYCMQHLEYPFTFGSGTKLEIK ?
8.65

Field request: pKd | item: ACI-7069-634H10-Ab2 (antibody, mouse IgG2b, V domains shown, Mouse IgG2b, kappa, from hybridoma; also called 634H10H7) VH: EVQLQQSGAELVKPGASVRLSCTASGFNIKDTYMHWVKQRPEQGLEWIGRIDPANSNTKFDPKFQGKATITSDTSSNTAYLQLSSLTSEDTAVYYCARFYGGSHWYFDVWGAGTTVTVSS VL: DIKMTQSPSSMYASLGERVTITCKASQDIKSYLSWYQHKPWKSPKALIYYATSLADGVPSRFSGSGSGQDYSLTISSLESDDTATYYCLQQGESPYTFGGGTKLEIK
8.82
